Reference source: IntAct's records for PubMed 24297912

B1: Basigin (Homo sapiens), P35613-2 (parent)
chain: MAAALFVLLGFALLGTHGASGAAGTVFTTVEDLGSKILLTCSLNDSATEVTGHRWLKGGVVLKEDALPGQKTEFKVDSDDQWGEYSCVFLPEPMGTANIQLHGPPRVKAVKSSEHINEGETAMLVCKSESVPPVTDWAWYKITDSEDKALMNGSESRFFVSSSQGRSELHIENLNMEADPGQYRCNGTSSKGSDQAIITLRVRSHLAALWPFLGIVAEVLVLVTIIFIYEKRRKPEDVLDDDDAGSAPLKSSGQHQNDKGKNVRQRNSS

- Variants of: B1
- stated_conditions: with rh5_plaf7 RH5, Q8IFM5
- Sequence (Q8IFM5 whole entry): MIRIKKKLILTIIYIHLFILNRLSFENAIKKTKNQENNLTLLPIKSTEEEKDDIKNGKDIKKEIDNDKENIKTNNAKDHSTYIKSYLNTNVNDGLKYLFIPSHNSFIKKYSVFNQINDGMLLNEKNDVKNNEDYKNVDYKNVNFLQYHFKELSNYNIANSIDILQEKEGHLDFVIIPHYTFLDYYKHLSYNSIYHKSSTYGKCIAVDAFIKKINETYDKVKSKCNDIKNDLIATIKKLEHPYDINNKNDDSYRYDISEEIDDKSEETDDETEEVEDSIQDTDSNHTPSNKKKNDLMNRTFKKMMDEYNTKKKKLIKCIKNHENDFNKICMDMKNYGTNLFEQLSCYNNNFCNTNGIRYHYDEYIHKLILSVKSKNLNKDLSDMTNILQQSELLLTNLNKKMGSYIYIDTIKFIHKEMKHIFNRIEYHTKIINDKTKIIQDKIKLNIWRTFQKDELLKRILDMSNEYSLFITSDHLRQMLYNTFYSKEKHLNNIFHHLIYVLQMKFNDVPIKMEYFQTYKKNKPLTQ
parameter_measured: effect of a mutation on the interaction

variant_identifier: K75E
result: with no effect
--
variant_identifier: D32E
result: with no effect
